biological target: human recombinant PDE9 protein (Homo sapiens, UniProt O76083); construct: made in house; host or cells: COS-1 cells, transient transfection with pcDNA 3.1 (+); supernatant of the homogenate, not purified; assay: Measurement of PDE9-inhibiting activity ([3H]-cGMP hydrolysis); format: biochemical; conditions: Tables A and C; read-out: Inhibiting Activity (IC50 value) PDE9
Sequence (O76083 whole entry): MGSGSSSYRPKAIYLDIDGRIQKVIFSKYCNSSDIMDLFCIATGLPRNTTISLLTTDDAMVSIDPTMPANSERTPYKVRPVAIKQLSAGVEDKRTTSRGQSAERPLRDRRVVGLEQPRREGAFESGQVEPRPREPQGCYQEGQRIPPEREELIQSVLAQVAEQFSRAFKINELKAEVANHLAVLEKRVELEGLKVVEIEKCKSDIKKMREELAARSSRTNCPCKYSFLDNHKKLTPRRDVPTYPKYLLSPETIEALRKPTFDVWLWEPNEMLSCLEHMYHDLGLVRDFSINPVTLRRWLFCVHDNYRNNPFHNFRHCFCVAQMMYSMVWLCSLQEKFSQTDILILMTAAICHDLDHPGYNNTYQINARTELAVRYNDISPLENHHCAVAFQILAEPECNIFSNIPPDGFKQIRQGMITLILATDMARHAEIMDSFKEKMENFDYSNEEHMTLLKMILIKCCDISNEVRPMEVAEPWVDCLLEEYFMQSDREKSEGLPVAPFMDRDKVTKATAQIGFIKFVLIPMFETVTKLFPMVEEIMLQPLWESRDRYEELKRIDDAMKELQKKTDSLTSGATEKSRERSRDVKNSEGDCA
measuredParameter: IC50 (nM)
Supply the numeric figure in nM, leaving out any unit text.

Input line: Please give the measured IC50 for this compound: `Cc1c(C(=O)O)sc2nc(Cc3cc(Cl)ccc3F)[nH]c(=O)c12`
Output line: 22

Input line: Find the recorded IC50 belonging to `Cc1c(C(=O)O)sc2nc(Cc3cccc(Br)c3)[nH]c(=S)c12` and report it.
Output line: 11

Input line: Consider the compound `O=C(O)c1cc2c(=S)[nH]c(Cc3ccccc3)nc2s1` and give its measured IC50.
Output line: 11

Input line: Please report the recorded IC50 for `Cc1c(C(=O)O)sc2nc(Cc3ccc(F)c(Cl)c3)[nH]c(=S)c12` .
Output line: 7

Input line: I am curious: what IC50 value has been reported for `Cc1c(C(=O)O)sc2nc(Cc3ccccc3)[nH]c(=S)c12` ?
Output line: 13

Input line: Need IC50 of `Cc1c(C(=O)O)sc2nc(CC3=CCCC3)[nH]c(=O)c12` , thanks.
Output line: 28

Input line: Request the reported IC50 associated with `Cc1c(C(=O)O)sc2nc(Cc3ccccc3SC(F)(F)F)[nH]c(=O)c12`
Output line: 46

Input line: For the compound `O=C(O)c1cc2c(=O)[nH]c(Cc3ccccc3)nc2s1` , what IC50 is on record?
Output line: 19

Input line: Look up IC50 for this compound: `Cc1c(C(=O)O)sc2nc(Cc3cccc(C(F)(F)F)c3)[nH]c(=O)c12`
Output line: 34

Input line: Which IC50 is listed for `O=C(O)c1cc2c(=O)[nH]c(Cc3cccc(C(F)(F)F)c3)nc2s1` ?
Output line: 15

Cited source for all entries: patent US20100113484A1
